- assay.system: T1, Human EphA2 (Human, UniProt P29317 24-537)
- T1 construct: extracellular domain; also called EphA2 (Ecto), Human
- T1 sequence (P29317 24-537): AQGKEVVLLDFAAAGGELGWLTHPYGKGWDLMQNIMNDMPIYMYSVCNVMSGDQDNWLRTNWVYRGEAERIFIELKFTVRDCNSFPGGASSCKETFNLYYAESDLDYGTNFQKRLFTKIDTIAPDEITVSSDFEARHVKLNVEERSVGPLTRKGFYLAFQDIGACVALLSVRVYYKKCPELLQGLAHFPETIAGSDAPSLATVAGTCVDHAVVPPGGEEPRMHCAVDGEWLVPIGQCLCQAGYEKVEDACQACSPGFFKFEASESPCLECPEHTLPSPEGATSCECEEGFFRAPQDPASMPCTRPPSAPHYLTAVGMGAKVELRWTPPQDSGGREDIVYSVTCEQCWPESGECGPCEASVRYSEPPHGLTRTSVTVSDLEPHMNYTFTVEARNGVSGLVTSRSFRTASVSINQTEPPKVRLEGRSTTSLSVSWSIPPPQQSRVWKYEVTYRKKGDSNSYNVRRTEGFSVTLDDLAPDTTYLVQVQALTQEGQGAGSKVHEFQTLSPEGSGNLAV
- protocol.text: FP competition; competitor: fluorescent Compound 66
pKi: −log10 of the molar value. Numbered stars: 1 amine (or outer) side, 2 acyl side, 3 side chain; on linkers, the order of the positions; unused ones are H or OH. Bridge positions count the residues as written; N and C are the ends. Square brackets hold non-standard residues; d marks the D form. Ends that are not written are not given here. TBMB = c1c(C[*:1])cc(C[*:3])cc1C[*:2]; Sar = CNCC(=O)O
measured.parameter: pKi

{"binder": "[Sar][Sar]ACPWGPFWCPVNRP[dA]C (linker 4-11-18 via TBMB, bicyclic peptide) [Compound 112]", "pKi": 6.96}
{"binder": "ACPWGPFWCPVARPGC (N-terminal Sar2 before the entry; three Cys cyclised on TBMB, bicyclic peptide) [Compound 101]", "pKi": 6.58}
{"binder": "[Sar][Sar]ACPWGPFWCPANRPGC (linker 4-11-18 via TBMB, bicyclic peptide) [Compound 292]", "pKi": 6.02}

[A] [Sar][Sar]ACPW[dA]PFWCPVNRPGC (linker 4-11-18 via TBMB, bicyclic peptide) [Compound 296]
[B] [Sar][Sar]ACPWGPFWCPVNR[dA]GC (linker 4-11-18 via TBMB, bicyclic peptide) [Compound 105]
Ask | Which of the two gives a bigger number for pKi: A or B ? Which one? Tell me its label.
Reply | B
